Numbers sourced from ChEMBL document CHEMBL1649418.

# measuredOn: UniProt:P29274
quantity: Ki (nM)

{"columns": ["testSmiles", "measuredOn", "Ki / nM"],
 "data": [
  ["CCC(=O)Nc1cc(-c2ccoc2)nc(-c2ccoc2)n1", "UniProt:P29274", 82.8]
]}

A. CCC(=O)Nc1cc(-c2ccco2)nc(-c2ccco2)n1
B. CCCC(=O)Nc1nc(-c2cccs2)cc(-c2cccs2)n1
C. CCC(=O)Nc1cc(-c2ccccc2F)nc(-c2ccccc2F)n1
Rank order required: Ki, descending. To answer, write out the labels according to the requested order.
B, C, A
(B: 201 nM, C: 103 nM, A: 6.4 nM)

----------
# measuredOn: Adenosine receptor A2a (Homo sapiens)
# Sequence (P29274 whole entry): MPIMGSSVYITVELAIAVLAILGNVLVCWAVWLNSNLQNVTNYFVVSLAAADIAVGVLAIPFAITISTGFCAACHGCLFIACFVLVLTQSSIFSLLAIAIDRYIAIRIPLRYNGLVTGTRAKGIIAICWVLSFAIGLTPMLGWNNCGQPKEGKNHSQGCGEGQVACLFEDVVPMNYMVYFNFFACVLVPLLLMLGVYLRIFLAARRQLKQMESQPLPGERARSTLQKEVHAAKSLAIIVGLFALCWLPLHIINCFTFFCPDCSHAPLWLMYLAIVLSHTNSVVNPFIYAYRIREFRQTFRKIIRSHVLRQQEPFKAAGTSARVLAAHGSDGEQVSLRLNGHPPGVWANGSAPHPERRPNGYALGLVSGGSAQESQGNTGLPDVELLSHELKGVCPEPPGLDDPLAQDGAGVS
# assayOverview: Displacement of [3H][…] from human adenosine A2A receptor expressed in human HeLa cells at 0.1 uM by liquid scintillation counting
# Type: cell-based
quantity: inhibition (%)

The examples below pair each entry with its known result.
{"columns": ["testSmiles", "unitDescriptor", "dataValue"],
 "data": [
  ["CC(=O)Nc1nc(-c2ccc(Cl)cc2)cc(-c2ccc(Cl)cc2)n1", "%", 2],
  ["CCC(=O)Nc1cc(-c2ccc(OC)cc2)nc(-c2ccc(OC)cc2)n1", "%", 1],
  ["CCCC(=O)Nc1nc(-c2ccc(C(C)=O)cc2)cc(-c2ccc(C(C)=O)cc2)n1", "%", 14]
]}

a. CC(=O)Nc1nc(/C=C/c2ccccc2)cc(/C=C/c2ccccc2)n1
b. CCCC(=O)Nc1cc(-c2ccc(C)cc2)nc(-c2ccc(C)cc2)n1
c. CCCC(=O)Nc1cc(-c2ccc(C(C)=O)cc2)nc(-c2ccc(C(C)=O)cc2)n1
Rank order required: inhibition, descending. To answer, write out the labels according to the requested order.
a, b, c
(a: 15%, b: 2%, c: 1%)

----------
# measuredOn: Adenosine receptor A1 (Homo sapiens) (UniProt P30542)
# Sequence (P30542 whole entry): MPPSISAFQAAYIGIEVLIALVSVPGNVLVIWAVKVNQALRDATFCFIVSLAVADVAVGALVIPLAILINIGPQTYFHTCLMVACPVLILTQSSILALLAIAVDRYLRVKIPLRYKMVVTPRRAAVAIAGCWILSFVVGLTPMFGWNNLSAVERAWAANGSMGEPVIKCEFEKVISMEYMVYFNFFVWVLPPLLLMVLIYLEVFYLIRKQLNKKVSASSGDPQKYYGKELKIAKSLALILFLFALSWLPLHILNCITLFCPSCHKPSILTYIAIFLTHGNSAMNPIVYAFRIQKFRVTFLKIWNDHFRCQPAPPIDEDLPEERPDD
# assayOverview: Displacement of [3H]DPCPX from human adenosine A1 receptor expressed in CHO cells at 0.1 uM by liquid scintillation counting
# Assay type: cell-based
quantity: inhibition (%)

The examples below pair each entry with its known result.
{"columns": ["testSmiles", "quantity", "dataValue"],
 "data": [
  ["CCC(=O)Nc1nc(-c2ccccc2OC)cc(-c2ccccc2OC)n1", "inhibition", 21],
  ["CC(=O)Nc1nc(-c2ccc(C(F)(F)F)cc2)cc(-c2ccc(C(F)(F)F)cc2)n1", "inhibition", 2],
  ["CCCC(=O)Nc1cc(/C=C/c2ccccc2)nc(/C=C/c2ccccc2)n1", "inhibition", 1]
]}

1. CC(=O)Nc1cc(-c2ccc(C(C)=O)cc2)nc(-c2ccc(C(C)=O)cc2)n1
2. CCC(=O)Nc1nc(-c2ccco2)cc(-c2ccco2)n1
Form field 'greater inhibition' accepts 1 or 2 ; which applies? Refer to your chosen entry by its label in the reply.
2
(2: 24%, 1: 10%)

P. CC(=O)Nc1cc(-c2ccccc2F)nc(-c2ccccc2F)n1
Q. CCCC(=O)Nc1nc(-c2ccc(C(F)(F)F)cc2)cc(-c2ccc(C(F)(F)F)cc2)n1
# compare inhibition for P vs Q ; return the one with the smaller value Refer to your chosen entry by its label in the reply.
Q

a. CCCC(=O)Nc1cc(-c2ccc(SC)cc2)nc(-c2ccc(SC)cc2)n1
b. CC(=O)Nc1cc(/C=C/c2ccccc2)nc(/C=C/c2ccccc2)n1
# compare inhibition for a vs b ; return the one with the smaller value Refer to your chosen entry by its label in the reply.
b
